Exercise: for every item that follows, state its recorded phosphorylation enrichment.
# assay system: Fes (UniProt P07332)
# Sequence (P07332 whole entry, looked up): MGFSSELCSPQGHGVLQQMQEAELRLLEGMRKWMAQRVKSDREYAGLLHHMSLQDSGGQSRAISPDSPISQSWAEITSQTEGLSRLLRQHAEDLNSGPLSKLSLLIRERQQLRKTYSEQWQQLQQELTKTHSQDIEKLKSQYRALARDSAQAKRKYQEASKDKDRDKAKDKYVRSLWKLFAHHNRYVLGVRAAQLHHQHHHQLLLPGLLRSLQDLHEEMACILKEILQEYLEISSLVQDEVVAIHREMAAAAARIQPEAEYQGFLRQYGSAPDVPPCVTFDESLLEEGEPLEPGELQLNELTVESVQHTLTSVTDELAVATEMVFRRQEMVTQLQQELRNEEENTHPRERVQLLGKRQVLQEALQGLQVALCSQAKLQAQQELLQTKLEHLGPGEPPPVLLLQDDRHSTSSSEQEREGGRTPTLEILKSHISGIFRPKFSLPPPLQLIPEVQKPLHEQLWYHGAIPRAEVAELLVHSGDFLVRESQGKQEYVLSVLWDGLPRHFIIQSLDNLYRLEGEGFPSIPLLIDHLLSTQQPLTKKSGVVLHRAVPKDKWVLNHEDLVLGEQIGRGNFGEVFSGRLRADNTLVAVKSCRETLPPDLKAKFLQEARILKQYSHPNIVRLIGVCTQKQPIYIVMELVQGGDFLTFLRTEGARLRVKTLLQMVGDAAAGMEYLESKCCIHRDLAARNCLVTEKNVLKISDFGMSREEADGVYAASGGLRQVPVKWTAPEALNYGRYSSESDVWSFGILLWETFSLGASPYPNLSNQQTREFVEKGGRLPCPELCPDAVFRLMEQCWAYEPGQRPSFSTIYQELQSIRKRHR
# test details: phosphorylation enrichment, bacterial display (enrichment ratio); higher = better substrate or ligand; peptides without Tyr show the background;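 further: 11-residue human phosphosite peptides and single-mutation variants displayed on the E. coli surface, counted by deep sequencing, each peptide's frequency after selection divided by its frequency in the unselected input library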;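 further: frequency after pTyr selection over input frequency; kinase dosed for 20-30% of maximal phosphorylation in three min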
// return just the number, without any unit appended

Entry under review: QGIYGYHHHMQ [UFSP2_Y287_Y290H] . Reported phosphorylation enrichment? 0.923

And then TVLEPYADPFF [ZC3H18_Y367_YF] , what is it? 0.879

Repeat for the following sequence: KIFPEYLSNWT [AIFM1_Y347_L344F] 0.916

And the next one, TIAIRYSHSRR [ACOXL_Y260] ? 0.918
